Source: patent US10821100B2

# study target: Recombinant human mPGES-1 (Homo sapiens, UniProt O14684)
# Construct: made in house; host or cells: CHO cells (crude microsomal fractions)
# Sequence (O14684 whole entry): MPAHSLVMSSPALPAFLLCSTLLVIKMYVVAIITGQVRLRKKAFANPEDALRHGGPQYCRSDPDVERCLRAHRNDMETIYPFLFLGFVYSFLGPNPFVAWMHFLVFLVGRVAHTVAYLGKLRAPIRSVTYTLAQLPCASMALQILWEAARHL
# assay notes: In-vitro screening of mPGES-1 inhibitors (inhibition of PGE2 formation from PGH2, HTRF detection)
# Format: biochemical
# test context: 1 μM test compound; mPGES-1 enzyme, crude microsomal fractions; read-out: Percentage inhibition at 1 μM
Cut-off 90% on inhibition at 1 µM, inclusive. At or above means y; below means n.

• CC(C)(C)C(=O)NCc1cnc(C2CC2)c(-c2nn(-c3ccc(C(F)(F)F)cc3)c(=O)[nH]2)c1 = n

Consider the record given below.
Kindly determine if inhibition at 1 µM recorded for `CC(C)(CF)C(=O)NCc1ccc(Cl)c(-c2nn(-c3ccc(C(F)(F)F)cc3)c(=O)[nH]2)c1` is above or exactly 90%.
y

###

# study target: Recombinant human mPGES-1 (Homo sapiens)
# Construct: made in house; host or cells: CHO cells (crude microsomal fractions)
# assay notes: In-vitro screening of mPGES-1 inhibitors (inhibition of PGE2 formation from PGH2, HTRF detection)
# Assay type: biochemical
# test context: 1 μM test compound; mPGES-1 enzyme, crude microsomal fractions; read-out: Percentage inhibition at 1 μM
Cut-off 90% on inhibition at 1 µM, inclusive. At or above means 1; below means 0.

Solved cases below.
- CC(C)(CO)C(=O)NCc1ccc(Cl)c(-c2nn(-c3ccc(C(F)(F)F)cc3)c(=O)[nH]2)c1: 1
- CC1(C)CCC(n2nc(-c3cc(CNC(=O)C(F)(F)F)ccc3Cl)[nH]c2=O)CC1: 0
- O=C(NCc1cc(-c2nn(-c3ccc(C(F)(F)F)cc3)c(=O)[nH]2)c(Cl)cc1F)C(F)(F)F: 1
- CC(C)(C)C(=O)NCc1ccc(Cl)c(-c2nn(-c3ccc(C(F)(F)F)cn3)c(=O)[nH]2)c1F: 0
- COc1cc(-n2nc(-c3c(Cl)cccc3Cl)[nH]c2=O)ccc1C(=O)Nc1ccc(S(C)(=O)=O)cc1: 0

Kindly determine if inhibition at 1 µM recorded for `O=C(NC1(c2ccc(C(F)(F)F)cc2)CC1)c1ccc(-n2nc(-c3c(F)cccc3Cl)[nH]c2=O)cc1` is above or exactly 90%.
0

// query: `CCn1c(-c2c(F)cccc2Cl)nn(-c2ccc(C#Cc3cccc(Cl)c3F)cc2)c1=O`
0

// query: `CC(C)C(=O)NCc1cc(-c2nn(-c3ccc(C(F)(F)F)cc3)c(=O)[nH]2)c(Cl)cc1F`
1

// query: `CC(C)(C)C(=O)NCc1ccc(Cl)c(-n2nc(-c3ccc(C(F)(F)F)c(F)c3)[nH]c2=O)c1`
1

// query: `O=C(NCc1ccc(Cl)c(-c2nn(-c3ccc(C(F)(F)F)cc3)c(=O)[nH]2)c1)c1ccno1`
0

// query: `Cc1ccc(CNC(=O)C(C)C)c(C)c1-c1nn(-c2ccc(C#CC(C)(C)C)cc2)c(=O)[nH]1`
1

// query: `O=C(NCc1ccc(Cl)c(-n2nc(-c3ccc(C(F)(F)F)cc3F)[nH]c2=O)c1)C1CC1`
0

// query: `COc1cc(-n2nc(-c3c(C)cccc3Cl)[nH]c2=O)ccc1C(=O)Nc1cccc(C(F)(F)F)c1`
1

###

# study target: Recombinant human mPGES-1 (Homo sapiens, UniProt O14684)
# assay notes: In-vitro screening of mPGES-1 inhibitors (inhibition of PGE2 formation from PGH2, HTRF detection)
# test context: mPGES-1 enzyme; class symbols
Catalogue of IC50 readings, one per entry.

Worked examples follow.
* COc1cc(-n2nc(-c3c(Cl)cccc3Cl)[nH]c2=O)ccc1C(=O)Nc1cccc(C(F)(F)F)c1 | < 50 nM
* COc1cc(-n2nc(-c3c(F)cccc3Cl)[nH]c2=O)ccc1C(=O)Nc1nnc(C(F)(F)F)s1 | < 50 nM
* CC(C)(C)C(=O)NCc1ccc(Cl)c(-c2nn(-c3ccc(C(F)(F)F)cn3)c(=O)[nH]2)c1F | > 100 nM
* COc1cc(-n2nc(-c3c(F)cccc3Cl)[nH]c2=O)ccc1C(=O)NCc1ccccc1C(F)(F)F | > 100 nM

What IC50 appears in the records for this compound with Recombinant human mPGES-1 (Homo sapiens, UniProt O14684)? `COc1cc(-n2nc(-c3c(F)cccc3Cl)[nH]c2=O)ccc1C(=O)Nc1ccc(C)cc1F`
50 to 100 nM

// query: `O=C(NCc1ccc(Cl)c(-c2nn(-c3ccc(C(F)(F)F)cc3)c(=O)[nH]2)c1)C(F)(F)F`
< 50 nM

// query: `CC1(C)CCC(n2nc(-c3cc(CNC(=O)C(C)(C)C)ccc3Cl)[nH]c2=O)CC1`
> 100 nM
